Biological target: Cyclin Dependent Kinase 2/Cyclin E1 (CDK2-cycE1) (Homo sapiens, UniProt P24941)
Construct: purchased ProQinase 0050-0055-1
Experiment: CDK2-cycE1 TR-FRET (LANCE) enzyme assay
Format: biochemical
Conditions: Table O, fold selectivity, enzymatic CDK1 Ki over CDK2 Ki
Experimental: Cyclin Dependent Kinase 1/Cyclin A2 (CDK1-cycA2), Cyclin Dependent Kinase 2/Cyclin E1 (CDK2-cycE1), Cyclin Dependent Kinase 4/Cyclin D3 (CDK4-cycD3) and Cyclin Dependent Kinase 6/Cyclin D3 (CDK6-cycD3) enzyme assays were carried out as described below. […] An Echo acoustic dispenser is used to create dose responses of compound dissolved in DMSO into a 384-well microplate. […] Signal is a ratio of the Acceptor and Donor fluorescence. Inhibition constants are calculated via the Morrison equation. […]
FS CDK1/CDK2 reference
Keep the answer to the number alone.

Take a look at these entries with their results.
# Molecule, Study system, FS CDK1/CDK2
rows = [
    ("Cc1cc(Nc2cc([C@H]3CC[C@@H](OC(=O)NC45CC(C4)C5)C3)[nH]n2)c(C)nn1", "Cyclin Dependent Kinase 2/Cyclin E1 (CDK2-cycE1) (Homo sapiens, UniProt P24941)", 28),
    ("O=C(NC12CC(C1)C2)O[C@@H]1CC[C@H](c2cc(Nc3cccnn3)n[nH]2)C1", "Cyclin Dependent Kinase 2/Cyclin E1 (CDK2-cycE1) (Homo sapiens, UniProt P24941)", 26),
    ("CC(C)NC(=O)O[C@@H]1CC[C@H](c2cc(Nc3ccnc(N(C)C)n3)n[nH]2)C1", "Cyclin Dependent Kinase 2/Cyclin E1 (CDK2-cycE1) (Homo sapiens, UniProt P24941)", 19),
    ("CN1CCN(c2ccc(Nc3cc([C@H]4CC[C@@H](OC(=O)NC56CC(C5)C6)C4)[nH]n3)cn2)CC1", "Cyclin Dependent Kinase 2/Cyclin E1 (CDK2-cycE1) (Homo sapiens, UniProt P24941)", 6.4),
    ("Cc1ncc(Nc2cc([C@H]3CC[C@@H](OC(=O)NC(C)C)C3)[nH]n2)c(C)n1", "Cyclin Dependent Kinase 2/Cyclin E1 (CDK2-cycE1) (Homo sapiens, UniProt P24941)", 26),
    ("CC(C)NC(=O)O[C@@H]1CC[C@H](c2cc(Nc3cccnc3)n[nH]2)C1", "Cyclin Dependent Kinase 2/Cyclin E1 (CDK2-cycE1) (Homo sapiens, UniProt P24941)", 42),
    ("Cc1ncccc1Nc1cc([C@H]2CC[C@@H](OC(=O)N[C@H]3CCN(C)C3)C2)[nH]n1", "Cyclin Dependent Kinase 2/Cyclin E1 (CDK2-cycE1) (Homo sapiens, UniProt P24941)", 13),
    ("CC(C)NC(=O)O[C@@H]1CC[C@H](c2cc(Nc3ccncn3)n[nH]2)C1", "Cyclin Dependent Kinase 2/Cyclin E1 (CDK2-cycE1) (Homo sapiens, UniProt P24941)", 39),
    ("Cc1cncc(Nc2cc([C@H]3CC[C@@H](OC(=O)NC(C)C)C3)[nH]n2)c1", "Cyclin Dependent Kinase 2/Cyclin E1 (CDK2-cycE1) (Homo sapiens, UniProt P24941)", 18),
    ("CC(C)(C)NC(=O)O[C@@H]1CC[C@H](c2cc(Nc3ccncc3)n[nH]2)C1", "Cyclin Dependent Kinase 2/Cyclin E1 (CDK2-cycE1) (Homo sapiens, UniProt P24941)", 90),
]

Qu. For the molecule shown here, O=C(NC1(C(F)(F)F)CC1)O[C@@H]1CC[C@H](c2cc(Nc3cccnn3)n[nH]2)C1 , give the reported FS CDK1/CDK2.
Ans. 25

Qu. For the molecule shown here, COc1nccc(Nc2cc([C@H]3CC[C@@H](OC(=O)NC(C)C)C3)[nH]n2)n1 , give the reported FS CDK1/CDK2.
Ans. 21

Qu. For the molecule shown here, CC[C@H](C)NC(=O)O[C@@H]1CC[C@H](c2cc(Nc3cccnn3)n[nH]2)C1 (single isomer, unassigned) , give the reported FS CDK1/CDK2.
Ans. 24

Qu. For the molecule shown here, Cc1cc(=O)n(C)nc1Nc1cc([C@H]2CC[C@@H](OC(=O)NC(C)(C)C)C2)[nH]n1 , give the reported FS CDK1/CDK2.
Ans. 31

Qu. For the molecule shown here, COCCn1nc(Nc2cc([C@H]3CC[C@@H](OC(=O)NC(C)C)C3)[nH]n2)ccc1=O , give the reported FS CDK1/CDK2.
Ans. 11
